# Test system: human red blood cells (hRBC)
# assay explanation: Hemolysis
# Assay type: cell-based
# condition set: 100
Non-standard residues stand in square brackets, D forms with d. Residues, ends and D or L forms follow the SMILES beside them. dDab = NCC[C@@H](N)C(=O)O; hSer = N[C@@H](CCO)C(=O)O; Dab = NCC[C@H](N)C(=O)O
Kindly state Hemolysis at 100 μg/ml for each of the entries shown.
Numbers only, in %.

CC[C@H](C)[C@@H]1NC(=O)[C@H](Cc2c[nH]c3ccccc23)NC(=O)[C@H](CCC(=O)O)NC(=O)[C@@H]2CCCN2C(=O)[C@H]2CCCN2C(=O)[C@H](CCC(N)=O)NC(=O)[C@H](C)NC(=O)[C@H](CCN)NC(=O)[C@H](CCN)NC(=O)[C@H](Cc2c[nH]c3ccccc23)NC(=O)[C@H](CCN)NC(=O)[C@@H](CCN)NC(=O)[C@H](CCCCN)NC(=O)[C@H](CCN)NC1=O [Example 45] (cyclo(EWI[Dab]K[dDab][Dab]W[Dab][Dab]AQ[dP]P)): 0.2

As a next step, examine the molecule that follows.
Prompt: Which value of Hemolysis at 100 μg/ml has been reported for CC[C@H](C)[C@@H]1NC(=O)[C@H](Cc2c[nH]c3ccccc23)NC(=O)[C@H]([C@@H](C)O)NC(=O)[C@@H]2CCCN2C(=O)[C@H]2CCCN2C(=O)[C@H](CCN)NC(=O)[C@H](CCO)NC(=O)[C@H](CCN)NC(=O)[C@H](CCN)NC(=O)[C@H](Cc2c[nH]c3ccccc23)NC(=O)[C@H](CCN)NC(=O)[C@H](CCN)NC(=O)[C@H](CCCCN)NC(=O)[C@H](CCN)NC1=O [Example 35] (cyclo(TWI[Dab]K[Dab][Dab]W[Dab][Dab][hSer][Dab][dP]P)) in the records?
Completion: 0.2
